protein stability index for assorted variants
B1: RIPK4 (parent)
chain: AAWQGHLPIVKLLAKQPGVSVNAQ

- Variants of: B1
- TEST DETAILS: protein stability index of a GFP-peptide fusion (GPS, HEK-293T) (PSI 1-6); higher = more stable;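 note: lentivirally expressed fusions sorted by FACS into six bins by GFP to DsRed ratio, PSI derived from sequencing read proportions per bin multiplied by bin number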
- SETUP CONDITIONS: c terminus: a fixed tail appended

P8S = 1.78

**Q:** Please give the measured protein stability index for this variant: S20D
**A:** 2.55

**Q:** Could you tell me which protein stability index is on file for P17E ?
**A:** 3.58

**Q:** Entry V10A : reported protein stability index = ?
**A:** 2.33

**Q:** Look up protein stability index for this variant: A2G
**A:** 2.27

**Q:** Which measured protein stability index value corresponds to N22K ?
**A:** 2.29

**Q:** Name the recorded protein stability index for A14V .
**A:** 1.87

**Q:** What value of measured protein stability index is listed for P8N ?
**A:** 1.78

**Q:** Bench note: what protein stability index did A23D show?
**A:** 2.65

**Q:** Would you kindly share the measured protein stability index for A1K ?
**A:** 2.25

**Q:** Quick one: protein stability index of N22H ?
**A:** 2.37

**Q:** Requested read-out: protein stability index. Entry: A14M
**A:** 2.07

**Q:** Which protein stability index reading was recorded for the variant L12I ?
**A:** 2.4

**Q:** Request the reported protein stability index associated with L13T
**A:** 2.16

**Q:** Entry under review: A14E . Reported protein stability index?
**A:** 2.56

**Q:** Looking for the measured protein stability index of V21F , can you help?
**A:** 2.23
